# Tested on: HCC1569
# testSummary: cell number relative to DMSO (% of DMSO); higher = more cells (less growth inhibition / toxicity)
# assayContext: concentration: 10 µM; 24 h
readoutName: cell number
Give bare numbers.

Examples with answers:
The compound CNCCC(Oc1ccccc1OC)c1ccccc1.Cl (stereo not drawn) [Nisoxetine.HCl] , when measured on HCC1569, yielded cell number of 105

The compound "COc1ccc(CNC(=O)Nc2ncc([N+](=O)[O-])s2)cc1" , when measured on HCC1569, yielded cell number of 91

The compound Cl.NO [Hydroxylamine hydrochloride] , when measured on HCC1569, yielded cell number of 96.2

The compound Cc1ccc(S(=O)(=O)NC(Cc2ccccc2)C(=O)CCl)cc1 (stereo not drawn) , when measured on HCC1569, yielded cell number of 85.5

The compound CCN1C(=O)C=CC1=O [N-Ethylmaleimide] , when measured on HCC1569, yielded cell number of 102

The compound CN1C(CC(=O)c2ccccc2)CCCC1CC(O)c1ccccc1.Cl (stereo not drawn) [alpha-Lobeline hydrochloride] , when measured on HCC1569, yielded cell number of 99.3

The compound CCCCCCCCCCCCCCC(O)C(O)C(N)CO (stereo not drawn) , when measured on HCC1569, yielded cell number of 98.8

The compound "C[C@@H]([C@@H](O)c1ccc(O)cc1)N1CCC(O)(c2ccccc2)CC1" , when measured on HCC1569, yielded cell number of 102

Parameters: items (list). Returns: cell number for each item.
1. CN(C)C(=S)NN=C(c1ccccn1)c1ccccn1 [(Z)-di(2-pyridinyl)methanone N,N-dimethylthiosemicarbazone]
2. CCCCCC=CCC=CCCCCCCCC(=O)O [Linoleic acid]
3. COc1ccc(C(=O)Nc2c(Cl)cncc2Cl)cc1OC1CCCC1
4. CC12CC3CC(C)(C1)CC(N)(C3)C2.Cl [Memantine.HCl]
5. Cc1cccc(C#Cc2ccccc2)n1.Cl [6-Methyl-2-(phenylethynyl)pyridine hydrochloride]
6. CCCC(C(=O)OCCN(CC)CC)(c1ccccc1)c1ccccc1.Cl [SKF-525A hydrochloride]

Reply text:
[75.1, 102, 102, 94.8, 99.9, 94]

Parameters: items (list). Returns: cell number for each item.
1. COc1cc2c(cc1CC=C(C)C)C(=O)CC(c1ccc(O)cc1)O2 (stereo not drawn)
2. CCN1CCCC1CNC(=O)c1cc(S(=O)(=O)CC)c(N)cc1OC (stereo not drawn) [Amisulpride]
3. O=C(Nc1cccc2c(=O)cc(-c3nn[nH]n3)oc12)c1ccc(OCCCCc2ccccc2)cc1

Reply text:
103
107
101

The compound O=c1[nH]c(=O)n(C2CC(O)C(CO)O2)cc1I (stereo not drawn) , when measured on HCC1569, yielded cell number of 103

###

# System: HCC1569
# testSummary: cell number relative to DMSO (% of DMSO); higher = more cells (less growth inhibition / toxicity)
# assayContext: concentration: 10 µM; 24 h
readoutName: cell number
One number for each entry.

Examples with answers:
Documented cell number of "COc1ccccc1NC(=O)Nc1nc(-c2cccnc2)nc2ccccc12" : 97.6

Documented cell number of CCCCCCCCC1OC1CCCCCCCC(=O)O (stereo not given) [Epoxy-oleic acid] : 97.7

Documented cell number of CCCn1c(=O)[nH]c(=O)c2[nH]cnc21 [3-n-Propylxanthine] : 104

Documented cell number of CCOC(=O)C1=C(COCCN)NC(C)=C(C(=O)OC)C1c1ccccc1Cl (stereo not given) [Amlodipine] : 98.4

// next item, cell number requested
Documented cell number of CCCCCCCCCCCCCCCCCCOCC(COP(=O)([O-])OCC[N+](C)(C)C)OC(C)=O (stereo not given) : 98.8

###

# Tested on: HCC1569
# testSummary: H1.0 immunofluorescence intensity relative to DMSO (% of DMSO); higher = stronger H1.0 induction, active = 140 or more
# assayContext: concentration: 10 µM; 24 h
Select the matching outcome among active, inactive

Inquiry: # fetch the recorded call for CCN(CC)C(=O)C(C#N)=Cc1cc(O)c(O)c([N+](=O)[O-])c1 [Entacapone] here
Reply text: inactive

Inquiry: # fetch the recorded call for CC(C)C(=O)Nc1ccc([N+](=O)[O-])c(C(F)(F)F)c1 [Flutamide] here
Reply text: inactive

Inquiry: # fetch the recorded call for CCN1CCCC1CNC(=O)c1c(O)c(Cl)cc(Cl)c1OC.O=C(O)C(O)C(O)C(=O)O [S(+)-Raclopride L-tartrate] here
Reply text: inactive

Inquiry: # fetch the recorded call for CC(C)C(CO)Nc1nc(Nc2cccc(Cl)c2)c2ncn(C(C)C)c2n1 (configuration not stated) here
Reply text: active

Inquiry: # fetch the recorded call for CCCCCCCCCCCCCCCC(=O)NCC(COP(=O)([O-])OCC[N+](C)(C)C)OCC (racemic) [rac-2-Ethoxy-3-hexadecanamido-1-propylphosphocholine] here
Reply text: inactive

***
Inquiry: # fetch the recorded call for Cl.Fc1cccc(CN(C2=NCCN2)c2c(Cl)cccc2Cl)c1 [IMID-4F hydrochloride] here
Reply text: inactive

Inquiry: # fetch the recorded call for "COc1cc2c(Nc3ccc(NC(=O)c4ccccc4)cc3)ncnc2cc1OCCCN1CCOCC1" here
Reply text: active

Inquiry: # fetch the recorded call for CCCCCC=CC=CC(O)CCCCCCCC(=O)O (racemic) here
Reply text: inactive

Inquiry: # fetch the recorded call for CCCCC(C)(O)CC=CC1C(O)CC(=O)C1CCCCCCC(=O)OC (configuration not stated) [Misoprostol] here
Reply text: inactive

Inquiry: # fetch the recorded call for "COCC(=O)NCC=Cc1ccc2ncnc(Nc3ccc(Oc4ccc(C)nc4)c(C)c3)c2c1" here
Reply text: active

###

# Test system: HCC1569
# testSummary: cell number relative to DMSO (% of DMSO); higher = more cells (less growth inhibition / toxicity)
# assayContext: concentration: 10 µM; 24 h
readoutName: cell number

Documented cell number of CC(C=CC1=C(C)CCCC1(C)C)=CC=CC(C)=CC(=O)O [13-cis-retinoic acid] : 102

Documented cell number of CC1OC(OC2C(Oc3cc(O)c4c(=O)cc(-c5ccc(O)cc5)oc4c3)OC(CO)C(O)C2O)C(O)C(O)C1O (stereo not drawn) [Rhoifolin] : 102

Documented cell number of CC(=O)NCCc1c(Cc2ccccc2)[nH]c2ccccc12 [N-[2-(2-benzyl-1H-indol-3-yl)ethyl]acetamide] : 101

Documented cell number of CC1=CC(=O)c2ccccc2C1=O [Menadione] : 99.9

Documented cell number of COc1cc(C=CC(=O)c2ccc(O)cc2O)ccc1O [Homobutein] : 95.5

Documented cell number of CCCCCC(O)C=CC1=C(CC=CCCCC(=O)O)C(=O)CC1 (stereo not drawn) [Prostaglandin B2] : 109

Parameters: items (list). Returns: cell number for each item.
1. Cn1cnc2cc3c(Nc4cccc(Br)c4)ncnc3cc21
2. N#CC(=Cc1ccc(O)c(O)c1)C(=O)Nc1ccccc1 [Tyrphostin AG 494]

Reply text:
[92.4, 87.1]

###

# System: HCC1569
# testSummary: cell number relative to DMSO (% of DMSO); higher = more cells (less growth inhibition / toxicity)
# assayContext: concentration: 10 µM; 24 h
readoutName: cell number

Documented cell number of CN(C)CC=C(c1ccc(Br)cc1)c1cccnc1.Cl.Cl [Zimelidine dihydrochloride] : 99

Documented cell number of "CCOC(=O)[C@@H](N)CCC(=O)N[C@@H](CSCc1ccccc1)C(=O)N[C@@H](C(=O)OCC)c1ccccc1" : 97.6

Documented cell number of N=c1ccn2c(n1)OC1C(O)C(CO)OC12 (configuration not stated) : 76.4

Documented cell number of "CN(CC=CC#CC(C)(C)C)Cc1cccc2ccccc12" : 104

Documented cell number of "COC(=O)Nc1nc2ccc(C(=O)c3ccccc3)cc2[nH]1" : 69.2

Parameters: items (list). Returns: cell number for each item.
1. COc1cc2nc(N3CCN(C(=O)c4ccco4)CC3)nc(N)c2cc1OC.Cl [Prazosin.HCl]
2. O=C(O)CCCCC1CCSS1 (racemic)
3. Oc1cc2c(c(Cl)c1O)CCNCC2c1ccccc1 (configuration not stated)

Reply text:
[107, 104, 99.5]

Parameters: items (list). Returns: cell number for each item.
1. O=C(O)CCC(=O)c1ccc(-c2ccccc2)cc1
2. CN1CCCC1CCOC(C)(c1ccccc1)c1ccc(Cl)cc1 (configuration not stated)
3. CCCCCC=CCC=CCC=CCC=CCCCCCC(=O)O [Adrenic acid (22:4 n-6)]
4. CC(C)CCNC(C)C1CCC2C3CC=C4CC(O)CCC4(C)C3CCC12C (configuration not stated)
5. CN(C)C(=O)N=NC(=O)N(C)C [N,N,N',N'-Tetramethylazodicarboxamide]
6. CC(NC(=O)C(C#N)=Cc1ccc(O)c(O)c1)c1ccccc1 (configuration not stated) [Tyrphostin AG 527]
7. CCCC(CCC)C(=O)NO [N-hydroxy-2-propylpentanamide]

Reply text:
[101, 99.4, 99, 104, 94.8, 91.2, 100]
